Reference for the values: the supplement of paper PMC10567573

B1: FBF1 (parent)
chain: LQRASILDMRRDHEEQLQRLKLLK

- Variants of: B1
- assay: protein stability index of a GFP-peptide fusion (GPS, HEK-293T) (PSI 1-6); higher = more stable;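 note: lentivirally expressed fusions sorted by FACS into six bins by GFP to DsRed ratio, PSI derived from sequencing read proportions per bin multiplied by bin number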
- measurement_context: c terminus: a fixed tail appended
The entries below come with measured protein stability index values attached.
Keep it simple and answer with nothing but the number.

Before answering, review these 6 worked examples.
E15R :: 3.22
I6V :: 3.57
R3L :: 2.92
R19D :: 4.26
M9I :: 3.81
S5W :: 2.34

Record L20P . Reported protein stability index: 4.21

Record L17K . Reported protein stability index: 4.05

Record A4P . Reported protein stability index: 4.08

Record R11T . Reported protein stability index: 3.86

Record Q18G . Reported protein stability index: 3.79

Record D8I . Reported protein stability index: 2.51

Record L7M . Reported protein stability index: 3.85

Record K21L . Reported protein stability index: 3.01

Record K21V . Reported protein stability index: 3.07

Record D8V . Reported protein stability index: 2.33

Record E15G . Reported protein stability index: 3.56

Record K24W . Reported protein stability index: 2.1

Record K21Q . Reported protein stability index: 3.18

Record D12T . Reported protein stability index: 3.69
